system: Tetranychus cinnabarinus mite eggs; assay: Activity against mite eggs, dipping method on bean seedling leaves; type: in vivo; conditions: Tetranychus cinnabarinus, 96 h, read-out: mortality of mite eggs (%), 0.5 mg/L; checked after 4 days
Assignment: determine reported mortality at 0.5 µg/mL for the given molecules.
Answer in %, number only, no unit symbol.

Supply reported mortality at 0.5 µg/mL belonging to this molecule: Fc1cccc(F)c1C1=NC(c2ccc(COc3ccc(Cl)cc3)cc2)CO1 (stereo not shown)
80

Supply reported mortality at 0.5 µg/mL belonging to this molecule: CCCS(=O)(=O)Oc1ccc(C2COC(c3c(F)cccc3F)=N2)cc1 (stereo not shown)
75

Supply reported mortality at 0.5 µg/mL belonging to this molecule: C=C(C)COCc1ccc(C2COC(c3c(F)cccc3F)=N2)cc1 (stereo not shown)
86

Supply reported mortality at 0.5 µg/mL belonging to this molecule: Fc1cccc(F)c1C1=NC(c2ccc(COc3ccc4ccccc4c3)cc2)CO1 (stereo not shown)
85

Supply reported mortality at 0.5 µg/mL belonging to this molecule: O=S(=O)(Oc1ccc(C2COC(c3c(F)cccc3F)=N2)cc1)c1ccc(Br)cc1 (stereo not shown)
60

Supply reported mortality at 0.5 µg/mL belonging to this molecule: CCCOCc1ccc(C2COC(c3c(F)cccc3F)=N2)cc1 (stereo not shown)
92

Supply reported mortality at 0.5 µg/mL belonging to this molecule: CC(C)(C)c1ccc(S(=O)(=O)Oc2ccc(C3COC(c4c(F)cccc4F)=N3)cc2)cc1 (stereo not shown)
78

Supply reported mortality at 0.5 µg/mL belonging to this molecule: CCOc1cc(C(C)(C)C)ccc1C1COC(c2c(F)cccc2F)=N1 (stereo not shown) [Etoxazole, reference compound]
80

Supply reported mortality at 0.5 µg/mL belonging to this molecule: Fc1cccc(F)c1C1=NC(c2ccc(COCC(F)(F)F)cc2)CO1 (stereo not shown)
90

Supply reported mortality at 0.5 µg/mL belonging to this molecule: CCOCc1ccc(C2COC(c3c(F)cccc3F)=N2)cc1 (stereo not shown)
90

* * *

Assignment: determine reported mortality at 10 µg/mL for the given molecules.
tested on: Tetranychus cinnabarinus mite larvae; assay: Larvicidal activity test, dipping method on bean seedling leaves; assay type: in vivo; settings: Tetranychus cinnabarinus, 96 h, read-out: mortality of mite larvae (%), 10 mg/L; checked after 4 days

Supply reported mortality at 10 µg/mL belonging to this molecule: O=S(=O)(Oc1ccc(C2COC(c3c(F)cccc3F)=N2)cc1)c1cccc(F)c1 (stereo not shown)
90%

Supply reported mortality at 10 µg/mL belonging to this molecule: N#Cc1ccc(S(=O)(=O)Oc2ccc(C3COC(c4c(F)cccc4F)=N3)cc2)cc1 (stereo not shown)
70%

Supply reported mortality at 10 µg/mL belonging to this molecule: O=S(=O)(Oc1ccc(C2COC(c3c(F)cccc3F)=N2)cc1)c1ccc(F)c(F)c1F (stereo not shown)
100%

Supply reported mortality at 10 µg/mL belonging to this molecule: CC(C)(C)c1ccc(S(=O)(=O)Oc2ccc(C3COC(c4c(F)cccc4F)=N3)cc2)cc1 (stereo not shown)
100%

* * *

test system: Tetranychus cinnabarinus mite eggs; test: Activity against mite eggs, dipping method on bean seedling leaves; format: in vivo; conditions: Tetranychus cinnabarinus, 96 h, read-out: mortality of mite eggs (%), 100 mg/L; checked after 4 days
Assignment: determine reported mortality at 100 µg/mL for the given compounds.
Answer in %, number only, no unit symbol.

Supply reported mortality at 100 µg/mL belonging to this compound: CCCS(=O)(=O)Oc1ccc(C2COC(c3c(F)cccc3F)=N2)cc1 (stereo not drawn) [Compound R3-3]
100

Supply reported mortality at 100 µg/mL belonging to this compound: Fc1cccnc1OCc1ccc(C2COC(c3c(F)cccc3F)=N2)cc1 (stereo not drawn) [Compound R2-15]
100

Supply reported mortality at 100 µg/mL belonging to this compound: Cc1ccc2c(ccn2Cc2ccc(C3COC(c4c(F)cccc4F)=N3)cc2)c1 (stereo not drawn) [Compound R1-16]
100

Supply reported mortality at 100 µg/mL belonging to this compound: Fc1cccc(F)c1C1=NC(c2ccc(COc3cccnc3)cc2)CO1 (stereo not drawn) [Compound R2-13]
100

Supply reported mortality at 100 µg/mL belonging to this compound: Fc1cccc(F)c1C1=NC(c2ccc(COCc3cccs3)cc2)CO1 (stereo not drawn) [Compound R2-11]
100

Supply reported mortality at 100 µg/mL belonging to this compound: O=S(=O)(Oc1ccc(C2COC(c3c(F)cccc3F)=N2)cc1)c1ccc2ccccc2c1 (stereo not drawn) [Compound R3-21]
95

Supply reported mortality at 100 µg/mL belonging to this compound: C#CCCOCc1ccc(C2COC(c3c(F)cccc3F)=N2)cc1 (stereo not drawn) [Compound R2-7]
100

Supply reported mortality at 100 µg/mL belonging to this compound: Fc1cccc(F)c1C1=NC(c2ccc(CN3CCOCC3)cc2)CO1 (stereo not drawn) [Compound R1-4]
70

Supply reported mortality at 100 µg/mL belonging to this compound: O=S(=O)(Oc1ccc(C2COC(c3c(F)cccc3F)=N2)cc1)c1ccc(Cl)cc1 (stereo not drawn) [Compound R3-8]
95

* * *

Assignment: determine reported mortality at 0.1 µg/mL for the given compounds.
system: Tetranychus cinnabarinus mite larvae; assay: Larvicidal activity test, dipping method on bean seedling leaves; format: in vivo; conditions: Tetranychus cinnabarinus, 96 h, read-out: mortality of mite larvae (%), 0.1 mg/L; checked after 4 days
Answer in %, number only, no unit symbol.

Supply reported mortality at 0.1 µg/mL belonging to this compound: O=S(=O)(Oc1ccc(C2COC(c3c(F)cccc3F)=N2)cc1)c1ccc(Cl)cc1 (centres unmarked) [Compound R3-8]
60

Supply reported mortality at 0.1 µg/mL belonging to this compound: O=S(=O)(Oc1ccc(C2COC(c3c(F)cccc3F)=N2)cc1)c1ccccc1F (centres unmarked) [Compound R3-11]
50

Supply reported mortality at 0.1 µg/mL belonging to this compound: O=S(=O)(Oc1ccc(C2COC(c3c(F)cccc3F)=N2)cc1)c1ccc(F)cc1F (centres unmarked) [Compound R3-14]
60

Supply reported mortality at 0.1 µg/mL belonging to this compound: Fc1cccc(F)c1C1=NC(c2ccc(COc3ccc(Cl)cc3)cc2)CO1 (centres unmarked) [Compound R2-19]
85

Supply reported mortality at 0.1 µg/mL belonging to this compound: O=C1c2ccccc2C(=O)N1Cc1ccc(C2COC(c3c(F)cccc3F)=N2)cc1 (centres unmarked) [Compound R1-10]
70

Supply reported mortality at 0.1 µg/mL belonging to this compound: Cc1cccc2ccn(Cc3ccc(C4COC(c5c(F)cccc5F)=N4)cc3)c12 (centres unmarked) [Compound R1-18]
75

Supply reported mortality at 0.1 µg/mL belonging to this compound: CCOCc1ccc(C2COC(c3c(F)cccc3F)=N2)cc1 (centres unmarked) [Compound R2-2]
80

Supply reported mortality at 0.1 µg/mL belonging to this compound: CC(C)(C)c1ccc(S(=O)(=O)Oc2ccc(C3COC(c4c(F)cccc4F)=N3)cc2)cc1 (centres unmarked) [Compound R3-17]
85

* * *

system: Tetranychus cinnabarinus mite eggs; assay: Activity against mite eggs, dipping method on bean seedling leaves; type: in vivo; settings: Tetranychus cinnabarinus, 96 h, read-out: mortality of mite eggs (%), 100 mg/L; checked after 4 days
readout.type: mortality at 100 µg/mL
For clarity, give the value followed by its unit.

Supply reported mortality at 100 µg/mL belonging to this molecule: CCOCc1ccc(C2COC(c3c(F)cccc3F)=N2)cc1 (centres unmarked)
100%

Supply reported mortality at 100 µg/mL belonging to this molecule: Fc1cccc(F)c1C1=NC(c2ccc(COc3ccc4ccccc4c3)cc2)CO1 (centres unmarked)
100%

Supply reported mortality at 100 µg/mL belonging to this molecule: Fc1cccc(F)c1C1=NC(c2ccc(COc3ccc(Cl)cc3)cc2)CO1 (centres unmarked)
100%

Supply reported mortality at 100 µg/mL belonging to this molecule: Fc1cccc(F)c1C1=NC(c2ccc(CN3CCc4ccccc43)cc2)CO1 (centres unmarked)
95%

Supply reported mortality at 100 µg/mL belonging to this molecule: CCCOCc1ccc(C2COC(c3c(F)cccc3F)=N2)cc1 (centres unmarked)
100%

* * *

tested on: Tetranychus cinnabarinus mite larvae; test: Larvicidal activity test, dipping method on bean seedling leaves; format: in vivo; conditions: Tetranychus cinnabarinus, 96 h, read-out: mortality of mite larvae (%), 10 mg/L; checked after 4 days
readout.type: mortality at 10 µg/mL (%)
Answer in %, number only, no unit symbol.

Give the observed mortality at 10 µg/mL of O=S(=O)(Oc1ccc(C2COC(c3c(F)cccc3F)=N2)cc1)c1ccc2ccccc2c1 (stereo not shown) [Compound R3-21] for Tetranychus cinnabarinus mite larvae.
100

Give the observed mortality at 10 µg/mL of O=C1c2ccccc2C(=O)N1Cc1ccc(C2COC(c3c(F)cccc3F)=N2)cc1 (stereo not shown) [Compound R1-10] for Tetranychus cinnabarinus mite larvae.
95

Give the observed mortality at 10 µg/mL of O=S(=O)(Oc1ccc(C2COC(c3c(F)cccc3F)=N2)cc1)c1cccc2ccccc12 (stereo not shown) [Compound R3-20] for Tetranychus cinnabarinus mite larvae.
80

Give the observed mortality at 10 µg/mL of COc1ccc2ccn(Cc3ccc(C4COC(c5c(F)cccc5F)=N4)cc3)c2c1 (stereo not shown) [Compound R1-25] for Tetranychus cinnabarinus mite larvae.
20
